Where these numbers come from: patent US20250120967A1

Target: RAF1 (cRAF) Y340D Y341D (Homo sapiens, UniProt P04049, Y340D/Y341D)
Sequence (P04049 whole entry Y340D/Y341D): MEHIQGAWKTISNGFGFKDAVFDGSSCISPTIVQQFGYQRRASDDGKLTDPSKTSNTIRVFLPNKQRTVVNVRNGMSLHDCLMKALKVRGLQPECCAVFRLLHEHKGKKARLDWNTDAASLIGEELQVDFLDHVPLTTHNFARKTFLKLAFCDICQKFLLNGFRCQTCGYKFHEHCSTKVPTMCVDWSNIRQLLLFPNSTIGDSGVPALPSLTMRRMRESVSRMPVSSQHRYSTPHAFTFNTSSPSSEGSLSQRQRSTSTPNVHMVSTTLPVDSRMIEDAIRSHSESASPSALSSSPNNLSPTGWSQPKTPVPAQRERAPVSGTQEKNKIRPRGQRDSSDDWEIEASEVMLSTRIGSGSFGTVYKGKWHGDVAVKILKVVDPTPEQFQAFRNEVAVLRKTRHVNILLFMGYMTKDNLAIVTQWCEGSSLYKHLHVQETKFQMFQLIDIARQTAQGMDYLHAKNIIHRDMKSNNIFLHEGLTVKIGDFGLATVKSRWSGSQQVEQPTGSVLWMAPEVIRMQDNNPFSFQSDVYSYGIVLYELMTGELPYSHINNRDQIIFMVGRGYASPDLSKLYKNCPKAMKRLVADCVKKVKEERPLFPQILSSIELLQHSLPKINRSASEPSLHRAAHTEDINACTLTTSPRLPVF
Assay: Tyrosine kinase inhibition assay
Assay type: biochemical
Conditions: single concentration 1.0 μM, read-out: percent inhibition
Listed compounds paired with reported inhibition at 1 µM
# value in %; strip the unit string

COc1cc2nccc(Oc3ccc(NC(=O)C4(NC(=O)c5ccc(F)cc5)CC4)cc3F)c2cc1Oc1c(F)cc(N)cc1F [Cbo-14] : 3
COc1cc2nccc(Oc3ccc(NC(=O)C4(C(=O)Nc5ccc(F)cc5)CC4)cc3)c2cc1OC [Cabozantinib, reference compound] : 66
COc1cc2nccc(Oc3ccc(NC(=O)C4(NC(=O)c5ccc(F)cc5)CC4)cc3F)c2cc1Oc1ccc(N)cc1F [Cbo-10] : 3

Task item: Look up inhibition at 1 µM for this compound: COc1cc2nccc(Oc3ccc(NC(=O)C4(C(=O)Nc5ccc(F)cc5)CC4)cc3F)c2cc1Oc1ccc(N)cc1F [Cbo-23]
Reply: 40

Task item: Given the compound COc1cc2nccc(Oc3ccc(NC(=O)C4(NC(=O)c5ccc(F)cc5)CC4)cc3F)c2cc1OC [Cbo-02] , what is its reported inhibition at 1 µM?
Reply: -8

====

Target: HCK (Homo sapiens)
Sequence (P08631 whole entry): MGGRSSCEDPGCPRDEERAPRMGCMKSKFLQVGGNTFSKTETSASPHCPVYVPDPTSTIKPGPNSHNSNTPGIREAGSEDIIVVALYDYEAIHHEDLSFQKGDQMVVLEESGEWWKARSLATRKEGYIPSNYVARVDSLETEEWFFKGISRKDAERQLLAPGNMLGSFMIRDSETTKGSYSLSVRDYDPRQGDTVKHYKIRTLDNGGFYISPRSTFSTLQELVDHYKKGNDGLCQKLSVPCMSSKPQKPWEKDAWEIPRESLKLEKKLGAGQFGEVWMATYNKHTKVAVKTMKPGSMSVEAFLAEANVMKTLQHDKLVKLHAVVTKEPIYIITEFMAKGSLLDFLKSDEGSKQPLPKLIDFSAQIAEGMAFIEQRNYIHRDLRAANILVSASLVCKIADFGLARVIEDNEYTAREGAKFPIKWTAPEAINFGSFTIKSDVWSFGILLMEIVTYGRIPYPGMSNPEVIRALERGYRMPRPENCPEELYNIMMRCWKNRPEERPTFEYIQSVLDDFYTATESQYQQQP
Experiment: Tyrosine kinase inhibition assay
Type: biochemical
Conditions: single concentration 1.0 μM, read-out: percent inhibition
Give Yes when the value for inhibition at 1 µM is at least 90%. Give No when it is less.

Answered examples (3):
COc1cc2nccc(Oc3ccc(NC(=O)C4(C(=O)Nc5ccc(F)cc5)CC4)cc3F)c2cc1Oc1ccc(N)cc1F : Yes
COc1cc2nccc(Oc3ccc(NC(=O)C4(NC(=O)c5ccc(F)cc5)CC4)cc3F)c2cc1Oc1ccc(N)cc1F : No
COc1cc2nccc(Oc3ccc(NC(=O)C4(NC(=O)c5ccc(F)cc5)CC4)cc3F)c2cc1OC : No

We next turn to a different compound, shown below.
Task item: Determine whether measured inhibition at 1 µM meets or exceeds 90% for `COc1cc2nccc(Oc3ccc(NC(=O)C4(NC(=O)c5ccc(F)cc5)CC4)cc3F)c2cc1Oc1c(F)cc(N)cc1F`
Reply: No

====

Molecular target: BRAF (Homo sapiens)
Test: Tyrosine kinase inhibition assay
Format: biochemical
Details: single concentration 1.0 μM, read-out: percent inhibition
Property label: inhibition at 1 µM (%)
Please respond with the number in % and leave the unit unwritten.

COc1cc2nccc(Oc3ccc(NC(=O)C4(C(=O)Nc5ccc(F)cc5)CC4)cc3F)c2cc1Oc1ccc(N)cc1F : 3

Turning to the following compound.
Task item: Can you share its inhibition at 1 µM? I mean this compound: `COc1cc2nccc(Oc3ccc(NC(=O)C4(NC(=O)c5ccc(F)cc5)CC4)cc3F)c2cc1Oc1c(F)cc(N)cc1F`
Reply: 1

====

Biological target: MAP4K3 (GLK) (Homo sapiens, UniProt Q8IVH8)
Test: Tyrosine kinase inhibition assay
Type: biochemical
Conditions: single concentration 1.0 μM, read-out: percent inhibition
Procedure: Tyrosine kinase inhibition assays were performed at ThermoFisher Life Technologies (Madison, WI, USA) using standard protocols (SelectScreen Biochemical Profiling Service, Thermo Fisher Scientific). ATP concentrations used were at the apparent Km. […] The apparent ATP Km was previously determined using a Z′-LYTE assay. […] The inhibition activities of compounds were determined in biochemical assays using single concentration (1.0 μM) measurements. […]
Catalogue of inhibition at 1 µM readings, one per entry.
Output spec: scalar in %, unitless text.

Example cases with answers are listed next.
COc1cc2nccc(Oc3ccc(NC(=O)C4(NC(=O)c5ccc(F)cc5)CC4)cc3F)c2cc1Oc1c(F)cc(N)cc1F : 58
COc1cc2nccc(Oc3ccc(NC(=O)C4(C(=O)Nc5ccc(F)cc5)CC4)cc3)c2cc1OC [Cabozantinib, reference compound] : 48
COc1cc2nccc(Oc3ccc(NC(=O)C4(C(=O)Nc5ccc(F)cc5)CC4)cc3F)c2cc1Oc1ccc(N)cc1F : 41
COc1cc2nccc(Oc3ccc(NC(=O)C4(NC(=O)c5ccc(F)cc5)CC4)cc3F)c2cc1Oc1ccc(N)cc1F : 59

Task item: What does the data say about its inhibition at 1 µM? Entry: `COc1cc2nccc(Oc3ccc(NC(=O)C4(NC(=O)c5ccc(F)cc5)CC4)cc3F)c2cc1OC`
Reply: 43

====

Here, each record is paired with measured inhibition at 1 µM data.
Biological target: FER (Homo sapiens)
Sequence (P16591 whole entry): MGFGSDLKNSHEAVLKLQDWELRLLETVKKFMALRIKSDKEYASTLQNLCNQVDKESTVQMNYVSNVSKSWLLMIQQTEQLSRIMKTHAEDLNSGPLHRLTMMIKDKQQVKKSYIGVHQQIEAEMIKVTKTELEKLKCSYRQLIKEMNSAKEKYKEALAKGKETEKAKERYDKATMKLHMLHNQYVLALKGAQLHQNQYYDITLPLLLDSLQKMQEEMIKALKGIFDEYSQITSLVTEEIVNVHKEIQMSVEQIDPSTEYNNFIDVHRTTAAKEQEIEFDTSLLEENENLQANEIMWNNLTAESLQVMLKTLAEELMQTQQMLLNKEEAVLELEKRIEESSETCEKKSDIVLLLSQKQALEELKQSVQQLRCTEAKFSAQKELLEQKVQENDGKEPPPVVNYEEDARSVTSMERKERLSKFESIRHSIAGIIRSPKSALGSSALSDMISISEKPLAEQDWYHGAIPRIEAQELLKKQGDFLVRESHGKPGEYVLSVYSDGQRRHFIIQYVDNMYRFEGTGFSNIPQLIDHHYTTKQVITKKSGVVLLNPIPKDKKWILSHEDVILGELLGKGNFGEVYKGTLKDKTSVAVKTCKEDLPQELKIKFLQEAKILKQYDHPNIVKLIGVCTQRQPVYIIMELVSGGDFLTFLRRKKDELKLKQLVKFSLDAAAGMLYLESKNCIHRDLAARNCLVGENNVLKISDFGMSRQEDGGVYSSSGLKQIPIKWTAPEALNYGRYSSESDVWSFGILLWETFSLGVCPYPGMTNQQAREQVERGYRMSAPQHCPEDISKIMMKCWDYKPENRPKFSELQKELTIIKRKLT
Assay: Tyrosine kinase inhibition assay
Type: biochemical
Conditions: single concentration 1.0 μM, read-out: percent inhibition
Write down the numeric answer in % and omit the unit.

Solved cases below.
COc1cc2nccc(Oc3ccc(NC(=O)C4(C(=O)Nc5ccc(F)cc5)CC4)cc3F)c2cc1Oc1ccc(N)cc1F [Cbo-23] : 101
COc1cc2nccc(Oc3ccc(NC(=O)C4(C(=O)Nc5ccc(F)cc5)CC4)cc3)c2cc1OC [Cabozantinib, reference compound] : 89
COc1cc2nccc(Oc3ccc(NC(=O)C4(NC(=O)c5ccc(F)cc5)CC4)cc3F)c2cc1Oc1c(F)cc(N)cc1F [Cbo-14] : 99

Task item: GET /values?readout=inhibition at 1 µM&item= COc1cc2nccc(Oc3ccc(NC(=O)C4(NC(=O)c5ccc(F)cc5)CC4)cc3F)c2cc1OC [Cbo-02]
Reply: 88

Task item: // query inhibition at 1 µM value for entry COc1cc2nccc(Oc3ccc(NC(=O)C4(NC(=O)c5ccc(F)cc5)CC4)cc3F)c2cc1Oc1ccc(N)cc1F [Cbo-10]
Reply: 97

====

Target: EGFR (ErbB1) (Homo sapiens, UniProt P00533)
Assay: Tyrosine kinase inhibition assay
Assay type: biochemical
Details: single concentration 1.0 μM, read-out: percent inhibition
List of inhibition at 1 µM values.
Output spec: scalar in %, unitless text.

COc1cc2nccc(Oc3ccc(NC(=O)C4(C(=O)Nc5ccc(F)cc5)CC4)cc3)c2cc1OC [Cabozantinib, reference compound] : 32
COc1cc2nccc(Oc3ccc(NC(=O)C4(NC(=O)c5ccc(F)cc5)CC4)cc3F)c2cc1Oc1ccc(N)cc1F : 88
COc1cc2nccc(Oc3ccc(NC(=O)C4(NC(=O)c5ccc(F)cc5)CC4)cc3F)c2cc1Oc1c(F)cc(N)cc1F : 89
COc1cc2nccc(Oc3ccc(NC(=O)C4(C(=O)Nc5ccc(F)cc5)CC4)cc3F)c2cc1Oc1ccc(N)cc1F : 58

Task item: Look at this compound and give its reported inhibition at 1 µM. `COc1cc2nccc(Oc3ccc(NC(=O)C4(NC(=O)c5ccc(F)cc5)CC4)cc3F)c2cc1OC`
Reply: 44

====

Target: AXL (Homo sapiens)
Sequence (P30530 26-894): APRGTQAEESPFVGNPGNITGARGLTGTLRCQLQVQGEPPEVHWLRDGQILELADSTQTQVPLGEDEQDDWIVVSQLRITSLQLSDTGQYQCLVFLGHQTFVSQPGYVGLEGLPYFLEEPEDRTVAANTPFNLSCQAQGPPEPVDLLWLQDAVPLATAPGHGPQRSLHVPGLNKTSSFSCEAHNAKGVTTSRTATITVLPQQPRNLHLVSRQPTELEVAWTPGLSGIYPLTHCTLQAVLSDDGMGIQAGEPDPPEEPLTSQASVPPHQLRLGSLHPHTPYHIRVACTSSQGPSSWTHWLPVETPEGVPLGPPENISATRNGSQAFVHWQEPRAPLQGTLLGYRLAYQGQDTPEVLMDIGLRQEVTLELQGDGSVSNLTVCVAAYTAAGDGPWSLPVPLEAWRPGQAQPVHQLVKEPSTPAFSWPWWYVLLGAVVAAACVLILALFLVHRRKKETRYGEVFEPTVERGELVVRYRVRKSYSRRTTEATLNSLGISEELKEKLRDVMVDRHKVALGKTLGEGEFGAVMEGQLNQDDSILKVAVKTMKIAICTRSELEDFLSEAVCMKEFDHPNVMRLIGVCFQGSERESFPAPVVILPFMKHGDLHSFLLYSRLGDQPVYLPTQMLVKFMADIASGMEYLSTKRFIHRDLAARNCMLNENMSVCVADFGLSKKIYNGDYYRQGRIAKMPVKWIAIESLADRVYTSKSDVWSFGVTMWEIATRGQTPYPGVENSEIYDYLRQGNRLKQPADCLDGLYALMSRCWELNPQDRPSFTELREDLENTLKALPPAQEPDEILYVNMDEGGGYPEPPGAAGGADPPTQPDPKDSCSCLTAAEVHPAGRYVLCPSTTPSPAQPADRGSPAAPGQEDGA
Test: Tyrosine kinase inhibition assay
Assay type: biochemical
Settings: single concentration 1.0 μM, read-out: percent inhibition
# inhibition at 1 µM per entry
Quick note: unit goes after the number.

COc1cc2nccc(Oc3ccc(NC(=O)C4(NC(=O)c5ccc(F)cc5)CC4)cc3F)c2cc1Oc1ccc(N)cc1F : 98%
COc1cc2nccc(Oc3ccc(NC(=O)C4(C(=O)Nc5ccc(F)cc5)CC4)cc3F)c2cc1Oc1ccc(N)cc1F : 106%

Task item: # inhibition at 1 µM lookup, item `COc1cc2nccc(Oc3ccc(NC(=O)C4(NC(=O)c5ccc(F)cc5)CC4)cc3F)c2cc1OC`
Reply: 91%

Task item: Please give the measured inhibition at 1 µM for this compound: `COc1cc2nccc(Oc3ccc(NC(=O)C4(NC(=O)c5ccc(F)cc5)CC4)cc3F)c2cc1Oc1c(F)cc(N)cc1F`
Reply: 96%

====

Attribute: inhibition at 1 µM
Target: FGR (Homo sapiens)
Sequence (P09769 whole entry): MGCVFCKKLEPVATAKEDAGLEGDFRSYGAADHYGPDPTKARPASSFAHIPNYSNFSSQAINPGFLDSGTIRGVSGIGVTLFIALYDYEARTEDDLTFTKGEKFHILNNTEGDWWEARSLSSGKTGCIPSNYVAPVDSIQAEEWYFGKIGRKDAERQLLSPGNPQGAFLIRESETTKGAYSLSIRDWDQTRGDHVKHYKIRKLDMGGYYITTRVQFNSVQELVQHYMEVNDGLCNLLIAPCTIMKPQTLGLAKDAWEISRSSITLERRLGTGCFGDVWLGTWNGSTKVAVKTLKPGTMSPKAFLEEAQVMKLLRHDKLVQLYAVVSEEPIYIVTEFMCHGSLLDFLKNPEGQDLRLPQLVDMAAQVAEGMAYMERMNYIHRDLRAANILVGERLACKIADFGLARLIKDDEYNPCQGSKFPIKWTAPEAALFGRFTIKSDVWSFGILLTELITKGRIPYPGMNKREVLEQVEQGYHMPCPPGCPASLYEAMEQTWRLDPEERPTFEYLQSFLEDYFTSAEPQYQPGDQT
Assay: Tyrosine kinase inhibition assay
Assay type: biochemical
Settings: single concentration 1.0 μM, read-out: percent inhibition
Procedure: Tyrosine kinase inhibition assays were performed at ThermoFisher Life Technologies (Madison, WI, USA) using standard protocols (SelectScreen Biochemical Profiling Service, Thermo Fisher Scientific). ATP concentrations used were at the apparent Km. […] The apparent ATP Km was previously determined using a Z′-LYTE assay. […] The inhibition activities of compounds were determined in biochemical assays using single concentration (1.0 μM) measurements. […]
Returns: string containing the number followed by the unit.

Recorded inhibition at 1 µM, per entry:
COc1cc2nccc(Oc3ccc(NC(=O)C4(C(=O)Nc5ccc(F)cc5)CC4)cc3F)c2cc1Oc1ccc(N)cc1F : 97%
COc1cc2nccc(Oc3ccc(NC(=O)C4(C(=O)Nc5ccc(F)cc5)CC4)cc3)c2cc1OC [Cabozantinib, reference compound] : 97%
COc1cc2nccc(Oc3ccc(NC(=O)C4(NC(=O)c5ccc(F)cc5)CC4)cc3F)c2cc1Oc1c(F)cc(N)cc1F : 92%
COc1cc2nccc(Oc3ccc(NC(=O)C4(NC(=O)c5ccc(F)cc5)CC4)cc3F)c2cc1Oc1ccc(N)cc1F : 92%

Task item: Given the entry `COc1cc2nccc(Oc3ccc(NC(=O)C4(NC(=O)c5ccc(F)cc5)CC4)cc3F)c2cc1OC` , what inhibition at 1 µM was observed with FGR (Homo sapiens)?
Reply: 74%

====

Target: UniProtKB P29317
Sequence (P29317 24-976): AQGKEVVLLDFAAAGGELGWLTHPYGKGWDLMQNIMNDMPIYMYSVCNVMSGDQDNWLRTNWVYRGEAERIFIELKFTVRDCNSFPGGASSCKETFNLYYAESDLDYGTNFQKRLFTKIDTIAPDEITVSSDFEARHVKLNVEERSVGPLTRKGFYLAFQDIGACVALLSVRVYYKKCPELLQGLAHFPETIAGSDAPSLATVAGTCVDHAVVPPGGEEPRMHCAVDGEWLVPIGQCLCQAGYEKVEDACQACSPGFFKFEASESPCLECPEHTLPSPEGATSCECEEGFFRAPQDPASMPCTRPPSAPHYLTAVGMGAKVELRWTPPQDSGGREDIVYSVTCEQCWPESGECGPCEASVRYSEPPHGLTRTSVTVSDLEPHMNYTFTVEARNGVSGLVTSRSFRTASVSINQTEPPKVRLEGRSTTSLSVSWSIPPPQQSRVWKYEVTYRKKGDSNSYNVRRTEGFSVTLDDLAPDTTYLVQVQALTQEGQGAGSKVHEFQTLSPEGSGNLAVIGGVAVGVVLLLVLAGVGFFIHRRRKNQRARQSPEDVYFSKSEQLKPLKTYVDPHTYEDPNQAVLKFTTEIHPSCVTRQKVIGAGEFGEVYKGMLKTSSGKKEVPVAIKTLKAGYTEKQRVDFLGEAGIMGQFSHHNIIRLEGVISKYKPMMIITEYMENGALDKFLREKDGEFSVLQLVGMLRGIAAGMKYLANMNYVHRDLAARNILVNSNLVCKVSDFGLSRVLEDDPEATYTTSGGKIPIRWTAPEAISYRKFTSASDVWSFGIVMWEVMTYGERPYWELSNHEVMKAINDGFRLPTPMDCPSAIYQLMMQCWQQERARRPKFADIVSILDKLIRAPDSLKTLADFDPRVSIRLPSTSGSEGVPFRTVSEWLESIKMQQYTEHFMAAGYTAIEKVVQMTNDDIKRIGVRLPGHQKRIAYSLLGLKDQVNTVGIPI
Experiment: Tyrosine kinase inhibition assay
Assay type: biochemical
Conditions: single concentration 1.0 μM, read-out: percent inhibition
Property label: inhibition at 1 µM
Quick note: unit goes after the number.

COc1cc2nccc(Oc3ccc(NC(=O)C4(NC(=O)c5ccc(F)cc5)CC4)cc3F)c2cc1OC : 33%
COc1cc2nccc(Oc3ccc(NC(=O)C4(C(=O)Nc5ccc(F)cc5)CC4)cc3)c2cc1OC [Cabozantinib, reference compound] : 95%
COc1cc2nccc(Oc3ccc(NC(=O)C4(NC(=O)c5ccc(F)cc5)CC4)cc3F)c2cc1Oc1ccc(N)cc1F : 56%
COc1cc2nccc(Oc3ccc(NC(=O)C4(NC(=O)c5ccc(F)cc5)CC4)cc3F)c2cc1Oc1c(F)cc(N)cc1F : 61%

Task item: Given `COc1cc2nccc(Oc3ccc(NC(=O)C4(C(=O)Nc5ccc(F)cc5)CC4)cc3F)c2cc1Oc1ccc(N)cc1F` , state its recorded inhibition at 1 µM.
Reply: 102%
